From: ChEMBL document CHEMBL4190162

# Test system: Mycobacterium tuberculosis
# measurement-description: Antimycobacterial activity against Mycobacterium tuberculosis H37Rv measured after 2 weeks
# Assay type: functional
# test-parameters: 336 h
The compounds listed here are annotated with their MIC.

[
  {
    "molecule-smiles": "COc1ccc2nc(C)cc(OCC(=O)NCCc3ccc(OC)c(OC)c3)c2c1",
    "system": "Mycobacterium tuberculosis",
    "MIC": "> 122 µM"
  },
  {
    "molecule-smiles": "CCCCCNC(=O)COc1cc(C)nc2ccc(OC)cc12",
    "system": "Mycobacterium tuberculosis",
    "MIC": "158 µM"
  },
  {
    "molecule-smiles": "COc1ccc2nc(C)cc(OCC(=O)NCCCc3ccccc3)c2c1",
    "system": "Mycobacterium tuberculosis",
    "MIC": "68.6 µM"
  },
  {
    "molecule-smiles": "COc1ccc(OC)c(CCNC(=O)COc2cc(C)nc3ccc(OC)cc23)c1",
    "system": "Mycobacterium tuberculosis",
    "MIC": "> 122 µM"
  },
  {
    "molecule-smiles": "COc1ccc2nc(C)cc(OCC(=O)NCCc3ccccc3)c2c1",
    "system": "Mycobacterium tuberculosis",
    "MIC": "> 143 µM"
  },
  {
    "molecule-smiles": "COc1ccc2nc(C)cc(OCC(=O)Nc3ccc(C)cc3)c2c1",
    "system": "Mycobacterium tuberculosis",
    "MIC": "> 149 µM"
  },
  {
    "molecule-smiles": "COc1ccc2nc(C)cc(OCC(=O)NCc3ccc4c(c3)OCO4)c2c1",
    "system": "Mycobacterium tuberculosis",
    "MIC": "24.7 µM"
  },
  {
    "molecule-smiles": "c1ccc(Cn2cnc3c(-c4ccco4)nccc32)cc1",
    "system": "Mycobacterium tuberculosis",
    "MIC": "> 25 µM"
  },
  {
    "molecule-smiles": "COc1ccc2nc(C)cc(OCC(=O)NCCc3ccc4c(c3)OCO4)c2c1",
    "system": "Mycobacterium tuberculosis",
    "MIC": "> 127 µM"
  }
]

---

# measurement-description: Cytotoxicity against human HepG2 cells after 24 to 48 hrs in presence of glucose by trypan blue dye-based hemocytometric method
# Assay type: cell-based
observation-type: CC50

[
  {
    "molecule-smiles": "COc1ccc2nc(C)cc(OCC(=O)Nc3ccc(Cl)cc3)c2c1",
    "result": "89.9 µM"
  },
  {
    "molecule-smiles": "COc1cccc(NC(=O)COc2cc(C)nc3ccc(OC)cc23)c1",
    "result": "43 µM"
  },
  {
    "molecule-smiles": "COc1ccc2nc(C)cc(OCC(=O)NCCc3ccc(OC)c(OC)c3)c2c1",
    "result": "> 122 µM"
  },
  {
    "molecule-smiles": "C#CCNC(=O)COc1cc(C)nc2ccc(OC)cc12",
    "result": "> 176 µM"
  },
  {
    "molecule-smiles": "COc1cc(NC(=O)COc2cc(C)nc3ccc(OC)cc23)cc(OC)c1",
    "result": "> 131 µM"
  },
  {
    "molecule-smiles": "COc1ccccc1NC(=O)COc1cc(C)nc2ccc(Br)cc12",
    "result": "> 125 µM"
  },
  {
    "molecule-smiles": "COc1ccc(OC)c(CCNC(=O)COc2cc(C)nc3ccc(OC)cc23)c1",
    "result": "> 122 µM"
  },
  {
    "molecule-smiles": "COc1ccc2nc(C)cc(OCC(=O)Nc3ccc4c(c3)OCO4)c2c1",
    "result": "80 µM"
  },
  {
    "molecule-smiles": "COc1ccc2nc(C)cc(OCC(=O)NCc3ccc4c(c3)OCO4)c2c1",
    "result": "> 131 µM"
  },
  {
    "molecule-smiles": "COc1ccc2nc(C)cc(OCC(=O)NCCCc3ccccc3)c2c1",
    "result": "> 137 µM"
  },
  {
    "molecule-smiles": "COc1ccc(NC(=O)COc2cc(C)nc3ccc(OC)cc23)c(OC)c1",
    "result": "> 131 µM"
  },
  {
    "molecule-smiles": "COc1ccc2nc(C)cc(OCC(=O)Nc3ccc(-c4ccccc4)cc3)c2c1",
    "result": "> 126 µM"
  },
  {
    "molecule-smiles": "COc1ccccc1NC(=O)COc1cc(C)nc2ccc(C)cc12",
    "result": "> 74 µM"
  },
  {
    "molecule-smiles": "COc1ccccc1NC(=O)COc1cc(C)nc2ccc(Cl)cc12",
    "result": "140 µM"
  },
  {
    "molecule-smiles": "COc1ccc2nc(C)cc(OCC(=O)NCCc3ccc4c(c3)OCO4)c2c1",
    "result": "> 127 µM"
  },
  {
    "molecule-smiles": "COc1ccc2nc(C)cc(OCC(=O)NCCc3ccccc3)c2c1",
    "result": "61.4 µM"
  },
  {
    "molecule-smiles": "COc1ccc2nc(C)cc(OCC(=O)Nc3cccc(Br)c3)c2c1",
    "result": "> 125 µM"
  },
  {
    "molecule-smiles": "COc1ccc2nc(C)cc(OCC(=O)NCc3ccccc3)c2c1",
    "result": "> 149 µM"
  },
  {
    "molecule-smiles": "COc1ccccc1NC(=O)COc1cc(C)nc2ccccc12",
    "result": "43.9 µM"
  },
  {
    "molecule-smiles": "COCCNC(=O)COc1cc(C)nc2ccc(OC)cc12",
    "result": "> 164 µM"
  },
  {
    "molecule-smiles": "COc1ccc2nc(C)cc(OCC(=O)Nc3ccccc3OC)c2c1",
    "result": "> 142 µM"
  },
  {
    "molecule-smiles": "c1ccc(Cn2cnc3c(-c4ccco4)nccc32)cc1",
    "result": "> 25 µM"
  },
  {
    "molecule-smiles": "COc1ccc2nc(C)cc(OCC(=O)Nc3ccccc3Cl)c2c1",
    "result": "> 140 µM"
  }
]
